target: Glutamate NMDA receptor; Grin1/Grin2b (Rattus norvegicus, UniProt P35439+Q00960); test: Antagonist activity against rat 1A/2B subtype of N-methyl-D-aspartate (NMDA) receptor in xenopus oocytes.
Sequence (Q00960 whole entry, other chains not shown): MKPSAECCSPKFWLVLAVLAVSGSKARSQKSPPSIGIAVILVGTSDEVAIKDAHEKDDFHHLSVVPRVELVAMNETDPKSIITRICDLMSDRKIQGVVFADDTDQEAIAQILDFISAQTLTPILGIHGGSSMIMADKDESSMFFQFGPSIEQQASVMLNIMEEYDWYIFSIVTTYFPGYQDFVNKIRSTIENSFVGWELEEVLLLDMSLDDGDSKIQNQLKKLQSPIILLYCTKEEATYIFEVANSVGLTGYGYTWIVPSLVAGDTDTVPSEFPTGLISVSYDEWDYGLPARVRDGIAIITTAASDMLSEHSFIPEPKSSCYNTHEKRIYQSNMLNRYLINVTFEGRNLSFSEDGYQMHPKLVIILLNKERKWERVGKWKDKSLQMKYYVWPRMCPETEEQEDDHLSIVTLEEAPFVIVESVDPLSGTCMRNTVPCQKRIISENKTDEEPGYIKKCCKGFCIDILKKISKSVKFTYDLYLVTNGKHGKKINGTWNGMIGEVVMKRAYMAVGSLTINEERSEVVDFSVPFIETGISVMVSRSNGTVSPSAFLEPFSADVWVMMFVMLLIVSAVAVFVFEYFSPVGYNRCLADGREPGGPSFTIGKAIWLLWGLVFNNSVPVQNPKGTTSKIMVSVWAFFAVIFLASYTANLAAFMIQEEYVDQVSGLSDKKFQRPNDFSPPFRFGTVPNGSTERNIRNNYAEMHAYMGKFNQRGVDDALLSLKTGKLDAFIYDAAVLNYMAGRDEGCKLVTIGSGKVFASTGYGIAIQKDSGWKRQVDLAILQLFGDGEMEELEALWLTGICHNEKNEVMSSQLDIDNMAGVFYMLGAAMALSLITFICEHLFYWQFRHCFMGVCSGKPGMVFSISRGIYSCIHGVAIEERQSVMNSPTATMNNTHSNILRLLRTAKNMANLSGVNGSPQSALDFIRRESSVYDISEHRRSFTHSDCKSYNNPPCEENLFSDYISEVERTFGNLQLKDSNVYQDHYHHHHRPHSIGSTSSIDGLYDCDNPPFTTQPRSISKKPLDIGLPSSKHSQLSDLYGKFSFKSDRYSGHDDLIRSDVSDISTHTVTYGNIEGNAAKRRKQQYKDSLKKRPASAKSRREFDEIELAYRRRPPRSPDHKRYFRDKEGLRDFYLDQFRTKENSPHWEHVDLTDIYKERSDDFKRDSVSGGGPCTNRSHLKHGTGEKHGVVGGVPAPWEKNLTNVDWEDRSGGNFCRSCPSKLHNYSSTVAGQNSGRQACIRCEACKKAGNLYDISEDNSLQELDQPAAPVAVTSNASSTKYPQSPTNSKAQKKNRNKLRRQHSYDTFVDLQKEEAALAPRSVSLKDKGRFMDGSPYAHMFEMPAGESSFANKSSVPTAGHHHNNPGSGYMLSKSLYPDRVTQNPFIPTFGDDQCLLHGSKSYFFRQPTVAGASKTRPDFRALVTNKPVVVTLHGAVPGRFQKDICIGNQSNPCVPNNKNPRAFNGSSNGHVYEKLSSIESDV
pIC50: −log10 of the molar value.
# if value of pIC50 reaches 7, tag YES; if it stays below, tag NO

Check this compound for pIC50 at or above 7: `Oc1ccc(CCCCN2CCc3c([nH]c4ccccc34)C2)cc1`
NO

Can you check `Oc1ccc(CCCNCCCCc2ccccc2)cc1` next?
YES

What do you get for `c1ccc(CCCCN2CCc3c([nH]c4ccccc34)C2)cc1` ?
NO

Further, for `Oc1ccc(CCN2CCc3c([nH]c4ccccc34)C2)cc1` ?
NO

Moving on to `COc1ccc2[nH]c3c(c2c1)CCN(CCCCc1ccccc1)C3`
NO

Thanks! And `Oc1ccc2c3c([nH]c2c1)CN(CCCCc1ccccc1)CC3` ?
YES

Reference source: ChEMBL document CHEMBL1131743
